The origin of these recorded values is patent US8859596B2.

biological target: human CB2 receptors (Homo sapiens (Human), UniProt P34972); assay: human CB2 radioligand binding assay ([3H]CP 55,940 competition); conditions: HEK293 membranes, 0.5 nM [3H]CP 55,940; read-out: human CB2 (Ki)
Sequence (P34972 whole entry): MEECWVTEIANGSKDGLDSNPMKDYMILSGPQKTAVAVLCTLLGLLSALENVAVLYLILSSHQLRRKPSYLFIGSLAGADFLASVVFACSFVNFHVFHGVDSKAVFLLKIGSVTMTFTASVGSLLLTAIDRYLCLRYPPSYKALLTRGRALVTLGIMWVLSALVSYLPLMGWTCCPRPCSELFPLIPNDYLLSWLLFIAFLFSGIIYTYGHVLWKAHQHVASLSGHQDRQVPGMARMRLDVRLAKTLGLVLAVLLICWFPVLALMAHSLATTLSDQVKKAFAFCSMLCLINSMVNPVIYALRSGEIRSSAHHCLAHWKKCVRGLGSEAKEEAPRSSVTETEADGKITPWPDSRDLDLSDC
measured property: pKi
The quantity pKi is defined as the negative base-10 logarithm of the molar concentration.

Prompt: // pKi lookup, key: CC(C)(C)NOc1ccc(C(F)(F)F)cc1C(=O)/N=c1\sc(C(C)(C)C)nn1CC1CC1 [Example 163]
Response: 7.80

Prompt: // pKi lookup, key: CCCCn1nc(C(C)(C)C)s/c1=N\C(=O)c1cc(C(F)(F)F)ccc1ON=C1CCCC1 [Example 190]
Response: 8.77

Prompt: // pKi lookup, key: CCCCn1nc(C(C)(C)C)s/c1=N\C(=O)c1cc(C(F)(F)F)ccc1ON=C(N)C(C)(C)C [Example 166]
Response: 7.19

Prompt: // pKi lookup, key: CCCCn1nc(C(C)(C)C)s/c1=N\C(=O)c1cc(C(F)(F)F)ccc1NNC(N)=O [Example 201]
Response: 7.33

***
Prompt: // pKi lookup, key: COCCn1nc(C(C)(C)C)s/c1=N\C(=O)c1cc(C(F)(F)F)ccc1ONC(C)(C)C [Example 158]
Response: 7.41

Prompt: // pKi lookup, key: CCCCn1nc(C(C)(C)C)s/c1=N\C(=O)c1cc(C(F)(F)F)ccc1ON=C1CCCCCN1 [Example 189]
Response: 8.80

Prompt: // pKi lookup, key: CCCCn1ccc(C(C)(C)C)c/c1=N\C(=O)c1cc(C(F)(F)F)ccc1ONC(C)(C)C [Example 157]
Response: 6.89

Prompt: // pKi lookup, key: CCCCn1nc(C(C)(C)C)s/c1=N\C(=O)c1cc(C(F)(F)F)ccc1ONC(C)(C)C [Example 34]
Response: 7.96

Prompt: // pKi lookup, key: CCCCn1nc(C(C)(C)C)s/c1=N\C(=O)c1cc(C(F)(F)F)ccc1O/N=C(\C)C(C)=O [Example 180]
Response: 7.74

Prompt: // pKi lookup, key: CCCCn1nc(C(C)(C)C)s/c1=N\C(=O)c1cc(C(F)(F)F)ccc1ON=C(C)N [Example 185]
Response: 7.80

Prompt: // pKi lookup, key: CCCCn1nc(C(C)(C)C)s/c1=N\C(=O)c1cc(C(F)(F)F)ccc1/N=N/C(C)(C)C [Example 148]
Response: 8.21

Prompt: // pKi lookup, key: CCCCn1nc(C(C)(C)C)s/c1=N\C(=O)c1ccc(C(F)(F)F)cc1ONC(C)(C)C [Example 170]
Response: 6.90

Prompt: // pKi lookup, key: CC(C)(C)NOc1ccc(C(F)(F)F)cc1C(=O)/N=c1\sc(C(C)(C)C)nn1CC1CCO1 (stereo not drawn) [Example 177]
Response: 7.82
